These entries and their values trace back to patent US20240400654A1.

Below is a list of entries, each paired with its recorded Ratio OD(Variant)/OD(WT) value.
- measuredTarget: HRgpA-6H (Porphyromonas gingivalis) (UniProt P28784)
- assayProcedure: ELISA, coated HRgpA-6H

{"binder": "KB001 mouse Fab VH S61R (Fab, V domains shown) VH: EVQLKQSGPGLVAPSQSLSITCTVSGFSLSIYSVHWVRQPPGKGLEWLGMIWGGGSSDYNRALKSRLSISKDNSKSQVFLKMNSLQTDDTAMYYCARNGNFYAMDYWGQGTSVTVSS VL: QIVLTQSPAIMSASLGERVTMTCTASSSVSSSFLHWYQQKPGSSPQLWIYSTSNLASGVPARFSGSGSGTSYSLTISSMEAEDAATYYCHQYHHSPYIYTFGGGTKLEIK", "endpointValue": 0.888}
{"binder": "KB001 mouse Fab VH S65V (Fab, V domains shown) VH: EVQLKQSGPGLVAPSQSLSITCTVSGFSLSIYSVHWVRQPPGKGLEWLGMIWGGGSSDYNSALKVRLSISKDNSKSQVFLKMNSLQTDDTAMYYCARNGNFYAMDYWGQGTSVTVSS VL: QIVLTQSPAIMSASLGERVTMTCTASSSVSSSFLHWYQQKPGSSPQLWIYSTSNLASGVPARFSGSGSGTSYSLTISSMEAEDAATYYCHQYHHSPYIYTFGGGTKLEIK", "endpointValue": 1.05}

[ask] Can you share its Ratio OD(Variant)/OD(WT)? I mean this binder: KB001 mouse Fab VH I51V (Fab, V domains shown) VH: EVQLKQSGPGLVAPSQSLSITCTVSGFSLSIYSVHWVRQPPGKGLEWLGMVWGGGSSDYNSALKSRLSISKDNSKSQVFLKMNSLQTDDTAMYYCARNGNFYAMDYWGQGTSVTVSS VL: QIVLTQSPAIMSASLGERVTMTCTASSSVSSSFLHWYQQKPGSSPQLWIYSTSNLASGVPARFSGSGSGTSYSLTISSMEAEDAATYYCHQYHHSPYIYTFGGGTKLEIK
[reply] 0.903
